The measurements presented in this section are drawn from PubChem BioAssay (NCI).

In this section we review reported TGI values for a set of compounds.
system: CCRF-CEM leukemia; experiment: NCI tumour cell line growth inhibition, 48 h
Number in µM, nothing else.

Field: example entries. Status: answers known.
CCOP(=O)(OCC)/C(C#N)=C/c1cccn1C: 89
CCCCCCCCCCCCCCCCNc1nc(=O)n(C2CC(O)C(COP(=O)(O)OC3CC(n4cc(F)c(=O)[nH]c4=O)OC3CO)O2)cc1F (stereo not given): 17.6
CC12CC(Br)(Br)C(=O)C3C1CCCC32: 9.43

Proceed to the following item.
Inquiry: Return reported TGI. Input compound: `COP(=O)(OC)[C@@](O)(c1ccccc1)[C@@H](O)[C@@H](O)c1ccccc1`
Reply text: 50.9

* * *

In this section we review reported TGI values for a set of compounds.
system: SF-295 CNS; assay: NCI tumour cell line growth inhibition, 48 h

Field: example entries. Status: answers known.
C=C1C(=O)OC2/C=C(CO)/C=C\C3OC3(C)CC(OC(=O)/C(C)=C/COC(C)=O)C12 (stereo not given): 28.3 µM
N#Cc1ccc(N=NN2CCCC2)cc1: > 100 µM
CCCCCCCCCCCCCCCCNc1nc(=O)n(C2CC(O)C(COP(=O)(O)OC3CC(n4cc(F)c(=O)[nH]c4=O)OC3CO)O2)cc1F (stereo not given): 18.9 µM
Fc1nc(-c2c3ccccc3c3sc4ccccc4n23)nc(N2CCOCCOCCOCCOCC2)n1: > 100 µM
NC(=O)c1c(NC(=O)c2ccc(C(F)(F)F)cc2Cl)sc2c1CCC(=O)C2: 4.5 µM

Inquiry: Return reported TGI. Input compound: `c1ccc([P+](Cc2ccc(C[P+](c3ccccc3)(c3ccccc3)c3ccccc3)s2)(c2ccccc2)c2ccccc2)cc1`
Reply text: > 100 µM

Inquiry: Return reported TGI. Input compound: COc1ccc(C2=NC(CO)[C@H](c3ccccc3)O2)cc1OC (stereo not given in full)
Reply text: > 100 µM

Inquiry: Return reported TGI. Input compound: `O=C(N/N=C\c1ccc([N+](=O)[O-])cc1)Nc1ccc2ccccc2c1`
Reply text: > 100 µM

Inquiry: Return reported TGI. Input compound: `O=C(O)c1cc(-c2ccc3cc(O)c(O)cc3c2)ccc1O`
Reply text: > 12.5 µM

Inquiry: Return reported TGI. Input compound: `Cc1cc(N)c2cc(NC(=O)/C=C\c3ccccc3Cl)ccc2n1`
Reply text: 2.71 µM

Inquiry: Return reported TGI. Input compound: `Oc1ccc(Br)cc1C=Nc1ccc(Oc2ccc(N=Cc3cc(Br)ccc3O)cc2)cc1`
Reply text: > 19.6 µM

Inquiry: Return reported TGI. Input compound: CC(C)CC1CC2C(=O)N(c3ccccc3)C(=O)C2c2[nH]c3ccccc3c21 (stereo not given)
Reply text: > 94.4 µM

* * *

system: HCT-15 colon; assay: NCI tumour cell line growth inhibition, 48 h
QUANTITY_NAME: TGI

CC[n+]1c(/C=C/c2cc(C(=O)OC)n3c2sc2ccccc23)sc2ccccc21: 34.9 µM
CC(=O)OC1C(C)OC(Oc2c(-c3ccc(O)cc3)oc3cc(O)cc(O)c3c2=O)C(O)C1OC(C)=O (stereo not drawn): > 100 µM

Inquiry: Return reported TGI. Input molecule: CC1=NN(c2ccccc2Cl)C2(C1)C(Cl)C(=O)N2c1nc2ccccc2s1 (stereo not drawn)
Reply text: > 100 µM

* * *

test system: UACC-62 melanoma; assay: NCI tumour cell line growth inhibition, 48 h
In this section we review reported TGI values for a set of compounds.
Number in µM, nothing else.

COc1cccc2c1C(=O)c1c(O)c3c(c(O)c1C2=O)C[C@@](O)(C(=O)CO)C[C@@H]3OC1CC2C(OCN2CN2COC3C(C)OC(O[C@H]4C[C@](O)(C(=O)CO)Cc5c(O)c6c(c(O)c54)C(=O)c4c(OC)cccc4C6=O)CC32)C(C)O1 (stereo not given in full): 0.0159

Proceed to the following item.
Inquiry: Look up and report measured TGI (UACC-62 melanoma) for the following compound: `CCN(CC)CCNc1ccc2nc(C)n3c4ccc(OC)cc4c(=O)c1c23`
Reply text: 20

* * *

tested on: OVCAR-8 ovarian; experiment: NCI tumour cell line growth inhibition, 48 h
In this section we review reported TGI values for a set of compounds.

Field: example entries. Status: answers known.
CC(=O)NC1=C(NCCO)C(=O)c2ccccc2C1=O: > 50 µM
O=C1OC(=O)c2c1cc1cc3c(cc1c2-c1ccc2c(c1)OCO2)OCO3: > 100 µM

Proceed to the following item.
Inquiry: Return reported TGI. Input compound: `O=c1c2cc([N+](=O)[O-])ccc2[nH]n1Cc1ccccc1Cl`
Reply text: > 100 µM

* * *

test system: NCI-H522 lung; test: NCI tumour cell line growth inhibition, 48 h
In this section we review reported TGI values for a set of compounds.

Cc1ncc2c(n1)CCC1=C2OS(=O)(=O)CC1N(C)C (stereo not drawn): > 100 µM
CC(=O)OC1C(C)OC(Oc2c(-c3ccc(O)cc3)oc3cc(O)cc(O)c3c2=O)C(O)C1OC(C)=O (stereo not drawn): 47.4 µM
NC(=S)N/N=C1\CCc2ccccc2C1: > 100 µM
CCCCCCCCCCCC(=O)OCC(O)CO (stereo not drawn): > 100 µM
C=CCNC(=S)NC=C(C(N)=O)C(N)=O: > 100 µM

Inquiry: Return reported TGI. Input compound: `COc1c(O)ccc(/C=N/NC(=S)NCOCCOC(C)=O)c1OC`
Reply text: > 100 µM

Inquiry: Return reported TGI. Input compound: `COc1ccc(C)cc1-c1ccc(-c2cc(C)ccc2OC)o1`
Reply text: > 100 µM

Inquiry: Return reported TGI. Input compound: `CCCCCCCCCCCCNCCCc1ccccc1`
Reply text: 3.03 µM

* * *

test system: EKVX NSCLC; experiment: NCI tumour cell line growth inhibition, 48 h
In this section we review reported TGI values for a set of molecules.

COc1cc(C(C)c2cc3c(cc2OCCCCCOc2cc4c(cc2C(C)c2cc(OC)c(OC)c(OC)c2)OCO4)OCO3)cc(OC)c1OC (centres undefined): > 100 µM
COc1ccc(C(=O)c2no[n+]([O-])c2C(=O)c2ccc(OC)cc2)cc1: 22.5 µM
Cc1ccnn1CCc1ccc(Cl)cc1Cl: 20.7 µM
Cc1ccc2c(n1)C(=O)c1cc(C)c(C)cc1C2=O: > 100 µM
Cc1ncc2c(n1)CCC1=C2OS(=O)(=O)CC1N(C)C (centres undefined): > 100 µM
COc1ccc(-n2c(C)nc3ccc(NC4OC(COC(C)=O)C(OC(C)=O)C(OC(C)=O)C4OC(C)=O)cc3c2=O)cc1 (centres undefined): > 100 µM
O=C(N/N=C/c1cc(Cl)cc(Cl)c1[O-])c1ccccc1O.O=C(N/N=C/c1cc(Cl)cc(Cl)c1[O-])c1ccccc1O.[Mn+2]: 11.2 µM
CN(COC(=O)C(C)(C)C)c1nc(N(C)COC(=O)C(C)(C)C)nc(N(C)COC(=O)C(C)(C)C)n1: > 100 µM

Proceed to the following item.
Inquiry: Return reported TGI. Input molecule: `CC1(C)COC(c2cccc(C(=O)c3ccccc3)c2)=N1`
Reply text: > 100 µM

* * *

system: SF-268 CNS; assay: NCI tumour cell line growth inhibition, 48 h
QUANTITY_NAME: TGI (µM)
Number in µM, nothing else.

O=C(NCCc1nccs1)c1cnc2c(S)cccc2c1: 27.1
CC1(c2cccc(C(F)(F)F)c2)CC(c2cccc(C(F)(F)F)c2)=C(C#N)C(=C(C#N)C#N)N1 (stereo unspecified): 31.1
CN1CC[C@@]2(c3cccc(O)c3)CC(=O)/C(=C/c3ccc(Cl)c(Cl)c3)[C@H]1C2: 7.01

Inquiry: Look up and report measured TGI (SF-268 CNS) for the following compound: `O=C1c2c[n+](Cc3ccccc3)ccc2-c2nc3ccccc3c3ccnc1c23`
Reply text: 3.66

Inquiry: Look up and report measured TGI (SF-268 CNS) for the following compound: `CCOC(=O)c1c(C)n(Cc2ccc(Cl)cc2Cl)c2c1cc(O)c1[nH]c(Cc3ccccc3)nc12`
Reply text: 6.21

Inquiry: Look up and report measured TGI (SF-268 CNS) for the following compound: Nc1ccc(C(=O)NN2C(=O)C(Cl)C2c2ccc(O)cc2)cc1 (stereo unspecified)
Reply text: 27

Inquiry: Look up and report measured TGI (SF-268 CNS) for the following compound: CCOC(=O)C1=C(C)N(Cc2ccccc2)C2(O)C=CC(=O)C3C(=O)N(c4ccccc4)C(=O)C132 (stereo unspecified)
Reply text: 7.81

Inquiry: Look up and report measured TGI (SF-268 CNS) for the following compound: COc1cc(C2c3cc4c(cc3[C@@H](Nc3cnc5ccccc5c3)C3COC(=O)[C@H]23)OCO4)cc(OC)c1O (stereo partly specified)
Reply text: 3.9

Inquiry: Look up and report measured TGI (SF-268 CNS) for the following compound: `c1ccc2c(c1)n1c(N3CCCC3)[n+]3ccccc3c1c1c3cccc[n+]3c(N3CCCC3)n21`
Reply text: 45.2

Inquiry: Look up and report measured TGI (SF-268 CNS) for the following compound: `COc1cc2c(/C=C3/C(=O)Nc4cc(C)c(O)cc43)c(Cl)[nH]c2cc1C`
Reply text: 31.9
